Origin of measurements: patent US20080114047A1

# Tested on: Trypanosoma brucei rhodesiense
# EXPERIMENT_DESCRIPTION: Anti-protozoan data: T.b.r. IC50
# Format: cell-based
# CONDITION_DETAILS: Tables VI(a), VI(c), read-out: T.b.r. IC50
pIC50: −log10 of the molar value.
Label YES when pIC50 is at or above 6; otherwise label NO.

Illustrative cases are given below, each with its answer.
Cl.Cl.N=C(N)c1ccc(OCCCCCOc2cccc(-c3cc4ccc(C(=N)N)cc4o3)c2)cc1 [Compound 62, dihydrochloride] ... YES
Cl.Cl.c1cc(C2=NCCN2)ccc1OCCCCOc1ccc(-c2cc3cc(C4=NCCN4)ccc3o2)cc1 [Compound 49, dihydrochloride] ... YES
N=C(NO)c1ccc2oc(CCCc3cc4cc(C(=N)NO)ccc4o3)cc2c1 ... NO
N=C(NO)c1ccc2oc(CCCCCc3cc4cc(C(=N)NO)ccc4o3)cc2c1 ... NO

# input for lookup
Query block: Could you tell me if the measured pIC50 of `CONC(=N)c1ccc2oc(CCCc3cc4cc(C(=N)NOC)ccc4o3)cc2c1` reaches 6 or more?
Result block: NO
